- PROTOCOL: Mouse blood levels of Example 3 following oral and subcutaneous administration
- Assay type: in vivo, albino male mice (strain OLAC: MF-1)
- TEST SETTINGS: sc, subcutaneous 50 mg/kg, 30 min, read-out: blood conc.
OBSERVABLE: concentration at 0.5 h

The measured concentration at 0.5 h associated with CCCCC(=O)C=C(C)CC1OCC(CC2OC2C(C)C(C)O)C(O)C1O (stereo not shown) reads 2200 ng/mL

###

- PROTOCOL: Mouse blood levels of Example 3 following oral and subcutaneous administration
- Format: in vivo, albino male mice (strain OLAC: MF-1)
- TEST SETTINGS: sc, subcutaneous 50 mg/kg, 10 min, read-out: blood conc.
OBSERVABLE: concentration at 10 min (ng/mL)
Give bare numbers, in ng/mL.

The measured concentration at 10 min associated with CCCCC(=O)C=C(C)CC1OCC(CC2OC2C(C)C(C)O)C(O)C1O (stereo not shown) reads 15500

###

- PROTOCOL: Mouse blood levels of Example 1 following oral and subcutaneous administration
- Format: in vivo, albino male mice
- TEST SETTINGS: sc, subcutaneous 50 mg/kg, 30 min, read-out: blood conc.
OBSERVABLE: concentration at 0.5 h

The measured concentration at 0.5 h associated with CC(=O)C=C(C)CC1OCC(CC2OC2C(C)C(C)O)C(O)C1O (stereo not shown) reads 5000 ng/mL

###

- PROTOCOL: Mouse blood levels of Example 1 following oral and subcutaneous administration
- Type: in vivo, albino male mice
- TEST SETTINGS: oral 50 mg/kg, 60 min, read-out: blood conc.
OBSERVABLE: concentration at 1 h

The measured concentration at 1 h associated with CC(=O)C=C(C)CC1OCC(CC2OC2C(C)C(C)O)C(O)C1O (stereo not shown) [Example 1] reads < 3000 ng/mL

###

- PROTOCOL: Mean serum concentrations in neonatal piglets after intramuscular or oral administration
- Format: in vivo
- TEST SETTINGS: pig, po, p.o. 50 mg/kg, 60'
OBSERVABLE: concentration at 1 h (ng/mL)
One number for each entry, in ng/mL.

The measured concentration at 1 h associated with CCCCC(=O)C=C(C)CC1OCC(CC2OC2C(C)C(C)O)C(O)C1O (stereo not shown) reads 830

###

- PROTOCOL: Mouse blood levels of Example 3 following oral and subcutaneous administration
- Type: in vivo, albino male mice (strain OLAC: MF-1)
- TEST SETTINGS: oral 50 mg/kg, 90 min, read-out: blood conc.
OBSERVABLE: concentration at 1.5 h

The measured concentration at 1.5 h associated with CCCCC(=O)C=C(C)CC1OCC(CC2OC2C(C)C(C)O)C(O)C1O (stereo not shown) [Example 3] reads < 1500 ng/mL

###

- PROTOCOL: Mean serum concentrations in neonatal piglets after intramuscular or oral administration
- Format: in vivo
- TEST SETTINGS: pig, im, i.m. 50 mg/kg, 40'
OBSERVABLE: concentration at 40 min (ng/mL)
Give bare numbers, in ng/mL.

The measured concentration at 40 min associated with CCCCC(=O)C=C(C)CC1OCC(CC2OC2C(C)C(C)O)C(O)C1O (stereo not shown) [Example 3] reads 5100

###

- PROTOCOL: Mouse blood levels of Example 3 following oral and subcutaneous administration
- Format: in vivo, albino male mice (strain OLAC: MF-1)
- TEST SETTINGS: oral 50 mg/kg, 20 min, read-out: blood conc.
OBSERVABLE: concentration at 20 min

The measured concentration at 20 min associated with CCCCC(=O)C=C(C)CC1OCC(CC2OC2C(C)C(C)O)C(O)C1O (stereo not shown) reads < 1500 ng/mL
